- assay comment: Food effect study: single oral Skelaxin 400 mg tablet with vs without food, healthy subjects, plasma pharmacokinetics
- Type: in vivo, human
- condition set: both sexes, human, plasma, oral, 400 mg, Treatment A: 400 mg tablet with food; read-out: AUC(last), least squares mean
experimental readout: AUC(0-t) (ng·h/mL)
State just the number; it will be interpreted in ng·h/mL.

Query Cc1cc(C)cc(OCC2CNC(=O)O2)c1 (stereo not shown) yields AUC(0-t) of 8440

---

- assay comment: Food effect study: single oral Skelaxin 400 mg tablet with vs without food, healthy subjects, plasma pharmacokinetics
- Assay type: in vivo, human
- condition set: both sexes, human, plasma, oral, 400 mg, Treatment A: 400 mg tablet with food; read-out: Tmax, least squares mean
experimental readout: Tmax
Reply with a number, then the unit it belongs to.

Tmax recorded for this compound, Cc1cc(C)cc(OCC2CNC(=O)O2)c1 (stereo not shown) [metaxalone] , is 4.29 h
